TARGET_DESC: T1, CEGPCR4 (C. elegans)
T1 chain: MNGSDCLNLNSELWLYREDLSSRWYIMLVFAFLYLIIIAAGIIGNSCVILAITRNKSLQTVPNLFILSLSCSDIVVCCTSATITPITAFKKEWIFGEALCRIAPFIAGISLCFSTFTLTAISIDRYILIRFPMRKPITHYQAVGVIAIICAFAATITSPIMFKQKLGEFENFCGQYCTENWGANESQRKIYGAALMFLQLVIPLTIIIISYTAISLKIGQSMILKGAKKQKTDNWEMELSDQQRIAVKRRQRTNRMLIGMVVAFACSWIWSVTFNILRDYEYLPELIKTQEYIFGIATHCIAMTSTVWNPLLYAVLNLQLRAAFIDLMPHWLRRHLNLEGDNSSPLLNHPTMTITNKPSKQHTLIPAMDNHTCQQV
EXPERIMENT_DESCRIPTION: competition binding assay, CEGPCR4/CHO membranes, vs [125I-Y]DVPGVLRF-NH2
Where no end group is shown, it is not given here. [ ]: non-standard residue; d: D form. pGlu = O=C1CC[C@@H](C(=O)O)N1
PARAMETER: IC50

Give the value of IC50 reported for the following: GDVPGVLRF-NH2 […-NH2 (AF4)]
0.0005 to 0.01 µM

Find the measured IC50 of PDVDHVFLRF-NH2 […-NH2 (SchistoFLRFa)] and report it.
60 to 900 µM

Output IC50 of [pGlu]DVDHVFLRF-NH2 (SMILES CC(C)C[C@H](NC(=O)[C@H](Cc1ccccc1)NC(=O)[C@@H](NC(=O)[C@H](Cc1c[nH]cn1)NC(=O)[C@H](CC(=O)O)NC(=O)[C@@H](NC(=O)[C@H](CC(=O)O)NC(=O)[C@@H]1CCC(=O)N1)C(C)C)C(C)C)C(=O)N[C@@H](CCCNC(=N)N)C(=O)N[C@@H](Cc1ccccc1)C(N)=O) [p…-NH2 (leucomyosuppressin)]
60 to 900 µM

Tell me IC50 reported for GMPGVLRF-NH2 [GMPGVLRF-NH2 (AF20)]
0.0005 to 0.01 µM

Return IC50 for the following binder: TDVDHVFLRF-NH2 […-NH2 (dromyosuppressin)]
50 to 500 µM

Output IC50 of AVPGVLRF-NH2 [AVPGVLRF-NH2 (AF3)]
0.0005 to 0.01 µM
